This listing pairs compounds with measured IC50.
target: PLASMIN (Homo sapiens, UniProt P00747)
Sequence (P00747 581-810 limits assumed, species assumed): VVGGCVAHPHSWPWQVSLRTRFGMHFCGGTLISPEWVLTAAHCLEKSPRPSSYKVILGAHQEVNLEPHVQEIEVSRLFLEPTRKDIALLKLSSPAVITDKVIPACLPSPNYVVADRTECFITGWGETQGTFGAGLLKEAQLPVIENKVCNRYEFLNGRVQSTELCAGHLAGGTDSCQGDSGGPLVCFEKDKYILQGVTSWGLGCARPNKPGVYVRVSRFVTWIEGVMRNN
Sequence (P00747 97-580 limits assumed, species assumed): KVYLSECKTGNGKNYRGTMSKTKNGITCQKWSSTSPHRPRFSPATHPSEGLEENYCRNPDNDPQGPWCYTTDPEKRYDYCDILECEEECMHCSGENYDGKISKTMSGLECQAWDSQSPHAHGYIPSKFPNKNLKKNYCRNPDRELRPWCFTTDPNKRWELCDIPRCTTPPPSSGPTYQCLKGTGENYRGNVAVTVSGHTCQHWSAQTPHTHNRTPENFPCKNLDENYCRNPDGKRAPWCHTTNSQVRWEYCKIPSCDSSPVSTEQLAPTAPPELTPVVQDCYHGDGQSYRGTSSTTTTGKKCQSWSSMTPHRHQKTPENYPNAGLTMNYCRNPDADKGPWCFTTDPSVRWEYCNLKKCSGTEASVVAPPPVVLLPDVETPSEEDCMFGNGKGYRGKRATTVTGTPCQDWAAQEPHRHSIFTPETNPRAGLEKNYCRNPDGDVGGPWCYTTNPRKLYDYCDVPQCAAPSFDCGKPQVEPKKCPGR
Report as: number unit

# input Return reported IC50; argument: `CC(C)=C1C(=O)N(Cc2ccc3ccc(C(=N)N)cc3c2)c2ccc(OC3CCN(C(=N)N)CC3)cc21`
# output 880 nM

# input Return reported IC50; argument: `CC(=N)N1CCC(Oc2ccc3c(c2)/C(=C/c2ccccc2)C(=O)N3Cc2ccc3ccc(C(=N)N)cc3c2)CC1`
# output 319 nM

# input Return reported IC50; argument: CC(C)C1C(=O)N(Cc2ccc3ccc(C(=N)N)cc3c2)c2ccc(OC3CCN(C(=N)N)CC3)cc21 (stereo not shown)
# output 734 nM

# input Return reported IC50; argument: `CC(=N)N1CCC(Oc2ccc3c(c2)CC(=O)N3Cc2ccc3ccc(C(=N)N)cc3c2)CC1`
# output 2460 nM

* * *

This listing pairs compounds with measured pIC50.
Target: UniProt:P00760
Sequence (P00760 24-246): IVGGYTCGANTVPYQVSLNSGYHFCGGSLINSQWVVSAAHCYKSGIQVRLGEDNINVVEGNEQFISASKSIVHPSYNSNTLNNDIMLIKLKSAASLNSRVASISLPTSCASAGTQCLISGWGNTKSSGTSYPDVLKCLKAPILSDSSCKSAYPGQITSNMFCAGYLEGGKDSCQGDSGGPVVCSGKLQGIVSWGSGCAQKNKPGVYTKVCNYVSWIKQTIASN
Kindly note that pIC50 refers to -log10 of the concentration in mol/L and answer with the value alone.

CC(=N)N1CCC(Oc2ccc3c(c2)CC(=O)N3Cc2ccc3ccc(C(=N)N)cc3c2)CC1 = 7.21
CC(C)=C1C(=O)N(Cc2ccc3ccc(C(=N)N)cc3c2)c2ccc(OC3CCN(C(=N)N)CC3)cc21 = 7.75
CC(=N)N1CCC(Oc2ccc3c(c2)/C(=C/c2ccc(F)cc2)C(=O)N3Cc2ccc3ccc(C(=N)N)cc3c2)CC1 = 7.98
CC(=N)N1CCC(Oc2ccc3c(c2)C(CC(=O)O)C(=O)N3Cc2ccc3ccc(C(=N)N)cc3c2)CC1 (stereo not shown) = 6.85
CC(=N)N1CCC(Oc2ccc3c(c2)/C(=C/c2ccc(Cl)cc2)C(=O)N3Cc2ccc3ccc(C(=N)N)cc3c2)CC1 = 7.52
CC(=N)N1CCC(Oc2ccc3c(c2)/C(=C/C(=O)O)C(=O)N3Cc2ccc3ccc(C(=N)N)cc3c2)CC1 = 7.54

Lab note: next compound to report on.
# input Return reported pIC50; argument: `CC1(C)C(=O)N(Cc2ccc3ccc(C(=N)N)cc3c2)c2ccc(OC3CCN(C(=N)N)CC3)cc21`
# output 8.19

* * *

target: thrombin (Homo sapiens); construct: proteolytic cleavage of its precursor prothrombin at the Arg-Thr linkage at positions 271-272 and the Arg-Ile linkage at positions 320-321; assay: thrombin amidolytic assay (Chromozym TH); assay type: biochemical; conditions: read-out: IIA IC50
This listing pairs molecules with measured IC50.
Number only, in µM; omit the unit.

Recorded results for 3 molecules are shown here.
CC(=N)N1CCC(Oc2ccc3c(c2)/C(=C/c2ccc(F)cc2)C(=O)N3Cc2ccc3ccc(C(=N)N)cc3c2)CC1 [Example 10] = 20
CC(=N)N1CCC(Oc2ccc3c(c2)C(C(C)C)C(=O)N3Cc2ccc3ccc(C(=N)N)cc3c2)CC1 (stereo not shown) [Example 8] = 4.71
CC1(C)C(=O)N(Cc2ccc3ccc(C(=N)N)cc3c2)c2ccc(OC3CCN(C(=N)N)CC3)cc21 [Example 5] = 4.53

# input Short answer please: IC50, thrombin (Homo sapiens), entry CC(=N)N1CCC(Oc2ccc3c(c2)C(CC(=O)O)C(=O)N3Cc2ccc3ccc(C(=N)N)cc3c2)CC1 (stereo not shown) [Example 13]
# output 500
